tested on: SW-620 colon; assay: NCI tumour cell line growth inhibition, 48 h
Measured Endpoint: GI50

INSERT INTO measurements (compound, result) VALUES
  ('N#Cc1c(N/N=C/c2c(Cl)cccc2Cl)nc(N)nc1N1CCOCC1', '6.11 µM'),
  ('CCN1CCC(CCOC)(CN2c3ccccc3Sc3ccc(Cl)cc32)C1 (stereo unspecified)', '1.7 µM'),
  ('C=CC(=O)Nc1cccc(C)c1Nc1cc(-c2cccnc2Cc2c(C)c(OC)cc(OC)c2C)ncn1', '10.7 µM'),
  ('C[C@]12CC[C@H]3[C@@H](CCC4=CC(=O)CC[C@@H]43)[C@@H]1CC[C@@H]2OC(=O)CCc1ccccc1', '20.3 µM'),
  ('Nc1ncnc2[nH]ncc12', '0.646 µM'),
  ('CCN=C1C=CC(=C(c2ccc(N)cc2)c2ccc(N(CC)CC)c(C)c2)C=C1', '0.345 µM');

###

test system: UO-31 renal; assay: NCI tumour cell line growth inhibition, 48 h
# TGI listing for each entry below
Measured Endpoint: TGI

INSERT INTO results (compound, target_under_test, result) VALUES
  ('COc1ccc(-c2cc(-c3ccccc3)nc(SCCCC(=O)NO)n2)cc1', 'UO-31 renal', '0.991 µM'),
  ('N=C(N)c1ccc(N2CCCN(c3ccc(C(=N)N)cc3)CC2)cc1', 'UO-31 renal', '> 100 µM'),
  ('CCO[C@]12C[C@H](OC)[C@@]3(O)CC(C1[C@H]3OCc1ccccc1)C13C4C2[C@H](OC)C1[C@](COC)(CN4CC)[C@H](O)C[C@@H]3OC (some centres undefined)', 'UO-31 renal', '> 100 µM'),
  ('O=C1C=C(Br)c2c(-c3ccccc3)oc3cccc1c23', 'UO-31 renal', '> 100 µM'),
  ('N#C/C(=C\c1ccccc1)C(=O)Nc1nnc(-c2ccccc2)o1', 'UO-31 renal', '> 100 µM'),
  ('CCC1C(c2cc(OC)c(OC)c(OC)c2)c2cc3c(cc2OC1N1CCCC1)OCO3 (centres undefined)', 'UO-31 renal', '23.1 µM'),
  ('CCCCCCc1cc(C(=O)Nc2cccc(C(F)(F)F)c2)nc(N)n1', 'UO-31 renal', '> 100 µM'),
  ('CCOC(=O)/C(Cl)=C(\C)Nc1nc2c(ccc3ccccc32)s1', 'UO-31 renal', '> 100 µM'),
  ('N#Cc1c(N)oc(-c2cccc([N+](=O)[O-])c2)c1C#N', 'UO-31 renal', '30.8 µM');

###

# TGI listing for each entry below
tested on: BT-549 breast; assay: NCI tumour cell line growth inhibition, 48 h
Measured Endpoint: TGI

INSERT INTO results (compound, measured_endpoint, result) VALUES
  ('O=C(N/N=C/c1ccc2c(c1)CCC2)c1ccccc1O', 'TGI', '41.7 µM'),
  ('O=C(NCCCCCCCCNC(=O)c1cc(-c2ccccc2)nc2ccccc12)c1cc(-c2ccccc2)nc2ccccc12', 'TGI', '> 100 µM'),
  ('N/C(=N\N=C\c1ccc(-c2ccccc2)cc1)N[N+](=O)[O-]', 'TGI', '> 100 µM'),
  ('C#CCOCC12C=CC(O1)C1C(=O)N(C)C(=O)C12 (stereo unspecified)', 'TGI', '> 100 µM'),
  ('COC(=O)C1C(OC(=O)c2ccccc2)CC2CCC1N2C(N)=O (stereo unspecified)', 'TGI', '> 100 µM'),
  ('CC1=C(N2CC2)C(=O)c2nc3n(c2C1=O)CCC3OC(=O)CCl (stereo unspecified)', 'TGI', '0.0444 µM');

Where do these numbers come from? They come from PubChem BioAssay (NCI).
